System: SW620
Assay: MTT cytotoxicity assay, SW620
Assay type: cell-based
Conditions: Homo sapiens, SW-620; MTT, 72 h, mean ± SD; read-out: IC50 SW620
Each entry below lists one item and its recorded IC50 value.

Here are 6 molecules together with their reported answers.
Find IC50 (SW620) for the entry "O=c1cc(OCc2cn(Cc3nccc4c3[nH]c3ccccc34)nn2)c2cc(Cl)ccc2o1"
> 50 µM

Now try Cc1nccc2c1[nH]c1ccc(OCc3cn(-c4cc(=O)oc5ccc(F)cc45)nn3)cc12 [11d] .
12.7 µM

Follow-up item: Cc1nccc2c1[nH]c1ccc(OCc3cn(-c4cc(=O)oc5ccc(Cl)cc45)nn3)cc12 [11c]
30.3 µM

Also need "Cc1nc(Cn2cc(COc3cc(=O)oc4ccc(F)cc34)nn2)cc2c1[nH]c1ccccc12" , thanks.
> 50 µM

What about "Cc1nc(Cn2cc(COc3cc(=O)oc4ccc(Cl)cc34)nn2)cc2c1[nH]c1ccccc12" ?
> 50 µM

Then Cc1nccc2c1[nH]c1ccc(OCc3cn(-c4cc(=O)oc5ccccc45)nn3)cc12 [11a] ?
8.4 µM

Further cases:
Query the reported IC50 for SW620; item: Cc1nccc2c1[nH]c1cc(OCc3cn(-c4cc(=O)oc5ccccc45)nn3)ccc12 [12a]
30 µM

Try this molecule next: COc1ccc2c3ccnc(C)c3n(Cc3cn(-c4cc(=O)oc5ccc(F)cc45)nn3)c2c1 [13d]
3.3 µM

One more molecule: "Cc1ccc2oc(=O)cc(OCc3cn(Cc4cc5c([nH]c6ccccc65)c(C)n4)nn3)c2c1"
> 50 µM

Now the same for Cc1ccc2oc(=O)cc(-n3cc(COc4ccc5c(c4)[nH]c4c(C)nccc45)nn3)c2c1 [12b]
20.8 µM

###

Measured activity against MCF-7, fold stronger than 5-FU values are reported for all entries that follow.
Test system: MCF-7
Test: MTT cytotoxicity assay, MCF-7
Assay type: cell-based, human
Details: compared with 5-FU IC50

Look at this compound and give its reported activity against MCF-7, fold stronger than 5-FU. Cc1ccc2oc(=O)cc(-n3cc(COc4ccc5c(c4)[nH]c4c(C)nccc45)nn3)c2c1 [12b]
3.4 fold

Proceed to COc1ccc2c3ccnc(C)c3n(Cc3cn(-c4cc(=O)oc5ccc(F)cc45)nn3)c2c1 [13d]
9–13 fold

Cc1nccc2c1[nH]c1ccc(OCc3cn(-c4cc(=O)oc5ccccc45)nn3)cc12 [11a] , same question.
9–13 fold

Alright, here's another compound for you.
# activity against MCF-7, fold stronger than 5-FU lookup, item Cc1nccc2c1[nH]c1ccc(OCc3cn(-c4cc(=O)oc5ccc(F)cc45)nn3)cc12 [11d]
9–13 fold

###

Below: a set of entries, each annotated with reported melting point.

Answered cases to consult:
Item under review: Cc1nccc2c1[nH]c1ccc(OCc3cn(-c4cc(=O)oc5ccc(Cl)cc45)nn3)cc12 [11c] . Reported melting point?
220 to 225 °C (dec.)

Please give the result for Cc1ccc2oc(=O)cc(-n3cc(COc4ccc5c(c4)[nH]c4c(C)nccc45)nn3)c2c1 [12b] too.
225.5 to 229.5 °C (dec.)

COc1ccc2c3ccnc(C)c3n(Cc3cn(-c4cc(=O)oc5ccccc45)nn3)c2c1 [13a] , same question.
239 to 243.5 °C (dec.)

Then this molecule:
For O=c1cc(OCc2cn(Cc3nccc4c3[nH]c3ccccc34)nn2)c2cc(Cl)ccc2o1 [4c] , what is its reported melting point?
263.5 to 265 °C (dec.)

###

System: HCT116
Test: MTT cytotoxicity assay, HCT116
Type: cell-based, human
Conditions: ratio IC50 HEK293T / IC50 HCT116
readout.type: SI (HCT116)

State the recorded SI (HCT116) for this entry: COc1ccc2c3ccnc(C)c3n(Cc3cn(-c4cc(=O)oc5ccc(C)cc45)nn3)c2c1 [13b]
>1

Try this compound next: COc1ccc2c(c1)[nH]c1c(C)nccc12 [HAR, harmine]
3.2

Then what about the compound Cc1ccc2oc(=O)cc(OCc3cn(Cc4cc5c([nH]c6ccccc65)c(C)n4)nn3)c2c1 [5b] ?
8.6

# iterate: Cc1nc(Cn2cc(COc3cc(=O)oc4ccc(Cl)cc34)nn2)cc2c1[nH]c1ccccc12 [5c]
1.2

Lookup Cc1ccc2oc(=O)cc(-n3cc(COc4ccc5[nH]c6c(C)nccc6c5c4)nn3)c2c1 [11b]
<0.4

Record: Cc1nccc2c1[nH]c1cc(OCc3cn(-c4cc(=O)oc5ccc(Cl)cc45)nn3)ccc12 [12c]
1.2

For Cc1nccc2c1[nH]c1ccc(OCc3cn(-c4cc(=O)oc5ccc(Cl)cc45)nn3)cc12 [11c] then?
0.8

Repeat for the following compound: O=c1cc(OCc2cn(Cc3nccc4c3[nH]c3ccccc34)nn2)c2ccccc2o1 [4a]
>1

Shift focus to the following entry.
Entry under review: Cc1nc(Cn2cc(COc3cc(=O)oc4ccc(F)cc34)nn2)cc2c1[nH]c1ccccc12 [5d] . Reported SI (HCT116)?
<0.1

###

Test system: HCT116
Experiment: MTT cytotoxicity assay, HCT116
Format: cell-based, human
Conditions: ratio IC50 HEK293T / IC50 HCT116
readout.type: SI (HCT116)
// keep it numeric: no unit symbol after the value

Known SI (HCT116) results, listed for orientation:
Would you mind telling me what SI (HCT116) value was observed for COc1ccc2c3ccnc(C)c3n(Cc3cn(-c4cc(=O)oc5ccc(F)cc45)nn3)c2c1 [13d] ?
0.3

Similarly, COc1ccc2c3ccnc(C)c3n(Cc3cn(-c4cc(=O)oc5ccccc45)nn3)c2c1 [13a] ?
3.6

Further, for Cc1nccc2c1[nH]c1ccc(OCc3cn(-c4cc(=O)oc5ccccc45)nn3)cc12 [11a] ?
2

Param item: Cc1nccc2c1[nH]c1cc(OCc3cn(-c4cc(=O)oc5ccccc45)nn3)ccc12 [12a]
1.5

Entry to check: O=c1[nH]cc(F)c(=O)[nH]1 [5-FU, 5-fluorouracil, reference compound]
1.6

Others:
Quick one: SI (HCT116) for O=c1cc(OCc2cn(Cc3nccc4c3[nH]c3ccccc34)nn2)c2cc(F)ccc2o1 [4d] ?
1.4

###

readout.type: melting point

Return reported melting point; argument: Cc1nccc2c1[nH]c1ccc(OCc3cn(-c4cc(=O)oc5ccccc45)nn3)cc12 [11a]
235.5 to 238 °C (dec.)

Same for "O=c1cc(OCc2cn(Cc3nccc4c3[nH]c3ccccc34)nn2)c2ccccc2o1"
260.5 to 264 °C (dec.)

One more molecule: Cc1nccc2c1[nH]c1cc(OCc3cn(-c4cc(=O)oc5ccc(F)cc45)nn3)ccc12 [12d]
249 to 251 °C (dec.)

And then Cc1ccc2oc(=O)cc(-n3cc(COc4ccc5[nH]c6c(C)nccc6c5c4)nn3)c2c1 [11b] , what is it?
235 to 242 °C (dec.)

Similarly, "Cc1nc(Cn2cc(COc3cc(=O)oc4ccc(Cl)cc34)nn2)cc2c1[nH]c1ccccc12" ?
254 to 257.5 °C (dec.)

And what about the molecule COc1ccc2c3ccnc(C)c3n(Cc3cn(-c4cc(=O)oc5ccc(Cl)cc45)nn3)c2c1 [13c] ?
233 to 239.5 °C (dec.)

Now try Cc1nccc2c1[nH]c1cc(OCc3cn(-c4cc(=O)oc5ccc(Cl)cc45)nn3)ccc12 [12c] .
244 to 247 °C (dec.)

Entry to check: COc1ccc2c3ccnc(C)c3n(Cc3cn(-c4cc(=O)oc5ccc(F)cc45)nn3)c2c1 [13d]
235 to 237 °C (dec.)

Try the molecule "Cc1ccc2oc(=O)cc(OCc3cn(Cc4nccc5c4[nH]c4ccccc45)nn3)c2c1"
246.5 to 251 °C (dec.)

How about this molecule: "Cc1nc(Cn2cc(COc3cc(=O)oc4ccc(F)cc34)nn2)cc2c1[nH]c1ccccc12"
259 to 261.5 °C (dec.)

Others:
Which melting point reading was recorded for the molecule COc1ccc2c3ccnc(C)c3n(Cc3cn(-c4cc(=O)oc5ccc(C)cc45)nn3)c2c1 [13b] ?
253 to 255 °C (dec.)

Entry "Cc1nc(Cn2cc(COc3cc(=O)oc4ccccc34)nn2)cc2c1[nH]c1ccccc12" please
149.5 to 153.5 °C (dec.)

###

Test system: SW620
Test: MTT cytotoxicity assay, SW620
Assay type: cell-based
Settings: Homo sapiens, SW-620; MTT, 72 h, mean ± SD; read-out: IC50 SW620
pIC50: −log10 of the molar value.
Entries annotated with measured pIC50

Param readout= pIC50; system= SW620; entry= Cc1nccc2c1[nH]c1cc(OCc3cn(-c4cc(=O)oc5ccc(Cl)cc45)nn3)ccc12 [12c] ; returns value.
< 4.30

Can you check COc1ccc2c3ccnc(C)c3n(Cc3cn(-c4cc(=O)oc5ccc(Cl)cc45)nn3)c2c1 [13c] next?
< 4.30

Please do the same for Cc1nccc2c1[nH]c1cc(OCc3cn(-c4cc(=O)oc5ccc(F)cc45)nn3)ccc12 [12d] as well.
< 4.30
